System: NF-κB pathway in THP1-Dual STING reporter cells
protocol text: STING THP1 Reporter Assay, NF-κB pathway (SEAP)
Format: cell-based, human
run parameters: Homo sapiens, THP1-Dual, 20 h, read-out: THP1 Reporter Assays EC50 (μM) NFkB, THP1-Dual cells, 10% human plasma, 20 hours, SEAP; 100% = 100 μM cGAMP
test readout: EC50 (µM)
Your answer is read as µM, so omit the unit and give the number.

Q) Provide only the value of recorded EC50 for Nc1ncnc2c1ncn2[C@@H]1O[C@@H]2COP(=O)(O)O[C@H]3[C@@H](F)[C@H](n4cnc5c4ncn4ccnc54)O[C@@H]3COP(=O)(O)O[C@H]2[C@H]1O
A) 13.6

Q) Return the recorded EC50 value; entry: Nc1ncnc2c1ncn2[C@@H]1O[C@@H]2COP(=O)(S)O[C@H]3[C@@H](O)[C@H](n4cnc5c(=O)[nH]c6nccn6c54)O[C@@H]3COP(=O)(S)O[C@H]2[C@H]1F (mixture of isomers)
A) 1.35

Q) Quickly give me recorded EC50 for Nc1ncnc2c1ncn2[C@@H]1O[C@@H]2COP(=O)(O)O[C@H]3[C@@H](O)[C@H](n4cnc5c(=O)n6ccnc6[nH]c54)O[C@@H]3COP(=O)(O)O[C@H]2[C@H]1F
A) 4.38

Q) Consider the compound Nc1ncnc2c1ncn2[C@@H]1O[C@@H]2COP(=O)(O)O[C@H]3[C@@H](O)[C@H](n4cnc5c4ncn4ncnc54)O[C@@H]3COP(=O)(O)O[C@H]2[C@H]1F and give its recorded EC50.
A) 16

----------
tested target: STING WT: His-TVMV-S-hSTING(155-341)-H232R (Homo sapiens, UniProt Q86WV6, H232R)
Construct: STING WT: His-TVMV-S-hSTING(155-341)-H232R
Sequence (Q86WV6 with tags, fused parts or gaps H232R): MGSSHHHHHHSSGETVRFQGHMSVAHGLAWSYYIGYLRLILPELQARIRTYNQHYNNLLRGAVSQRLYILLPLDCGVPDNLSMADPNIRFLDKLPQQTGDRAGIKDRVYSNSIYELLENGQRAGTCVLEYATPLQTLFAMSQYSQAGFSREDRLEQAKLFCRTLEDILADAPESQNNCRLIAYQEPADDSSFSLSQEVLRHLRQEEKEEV
protocol text: STING HTRF Binding Assay, STING WT
run parameters: 20 nM His-tagged STING cytoplasmic domain, 200 nM fluorescein-labeled cGAMP analog probe, one hour; read-out: HTRF Binding Assays IC50 (μM) STING WT
test readout: IC50 (µM)
Reply with just the number (in µM).

Q) Supply measured IC50 of Nc1ncnc2c1ncn2[C@@H]1O[C@@H]2COP(=O)(S)O[C@H]3[C@@H](F)[C@H](n4cnc5c4ncn4ncnc54)O[C@@H]3COP(=O)(S)O[C@H]2[C@H]1F (single isomer, unassigned) [Example 12-2] in your reply.
A) 0.01

Q) Give reported IC50 value for Nc1ncnc2c1ncn2[C@@H]1O[C@@H]2COP(=O)(S)O[C@H]3[C@@H](F)[C@H](n4cnc5c4ncn4ccnc54)O[C@@H]3COP(=O)(S)O[C@H]2[C@H]1F (single isomer, unassigned) [Example 21-2]
A) 0.02

----------
tested target: STING AQ: His-TVMV-S-hSTING(155-341)-G230A-R293Q (Homo sapiens, UniProt Q86WV6, G230A/H232R/R293Q)
Construct: STING AQ: His-TVMV-S-hSTING(155-341)-G230A-R293Q
Sequence (Q86WV6 with tags, fused parts or gaps G230A/H232R/R293Q): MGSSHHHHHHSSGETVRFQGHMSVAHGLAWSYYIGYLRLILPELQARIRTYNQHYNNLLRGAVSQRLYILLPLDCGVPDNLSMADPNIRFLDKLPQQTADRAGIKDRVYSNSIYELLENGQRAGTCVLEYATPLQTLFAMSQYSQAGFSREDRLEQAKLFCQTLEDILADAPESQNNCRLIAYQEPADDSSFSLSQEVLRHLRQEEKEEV
protocol text: STING HTRF Binding Assay, STING AQ
run parameters: 20 nM His-tagged STING cytoplasmic domain, 40 nM fluorescein-labeled cGAMP analog probe, one hour; read-out: HTRF Binding Assays IC50 (μM) STING AQ
Assignment: determine reported log10 of IC50 for the given compounds.
Could you please treat all values as log10 of IC50 in µM?

Q) Identify measured log10 of IC50 associated with NC(=O)c1cccc2c1nnn2[C@@H]1O[C@@H]2COP(=O)(O)O[C@H]3[C@@H](F)[C@H](n4cnc5c(N)ncnc54)O[C@@H]3COP(=O)(S)O[C@H]2[C@H]1F (single isomer, unassigned) [Example 8-1]
A) 0.24

Q) Return reported log10 of IC50. Input compound: Nc1ncnc2c1ncn2[C@@H]1O[C@@H]2COP(=O)(S)O[C@H]3[C@@H](O)[C@H](n4cnc5c(=O)[nH]c6nccn6c54)O[C@@H]3COP(=O)(S)O[C@H]2[C@H]1F (mixture of isomers) [Example 5]
A) -3.00

Q) Entry Nc1ncnc2c1ncn2[C@@H]1O[C@@H]2COP(=O)(S)O[C@H]3[C@@H](O)[C@H](n4nnc5c([N+](=O)[O-])cccc54)O[C@@H]3COP(=O)(O)O[C@H]2[C@H]1F (single isomer, unassigned) [Example 13-2] needs its log10 of IC50 filled in; supply it.
A) -0.35

Q) Give reported log10 of IC50 value for Nc1ncnc2c1ncn2[C@@H]1O[C@@H]2COP(=O)(O)O[C@H]3[C@@H](F)[C@H](n4cnc5c4ncn4ccnc54)O[C@@H]3COP(=O)(O)O[C@H]2[C@H]1O [Example 20]
A) -2.00

Q) Supply measured log10 of IC50 of Nc1ncnc2c1ncn2[C@@H]1O[C@@H]2COP(=O)(S)O[C@H]3[C@@H](F)[C@H](n4cnc5c4ncn4ccnc54)O[C@@H]3COP(=O)(S)O[C@H]2[C@H]1F (single isomer, unassigned) [Example 21-2] in your reply.
A) -2.00

Q) Supply reported log10 of IC50 belonging to this compound: NC(=O)c1cc([C@@H]2O[C@@H]3COP(=O)(S)O[C@H]4[C@@H](F)[C@H](n5cnc6c(N)ncnc65)O[C@@H]4COP(=O)(S)O[C@H]3[C@H]2O)[nH]n1 (single isomer, unassigned) [Example 6-1]
A) 0.12

Q) Tell me log10 of IC50 reported for NC(=O)c1cc([C@@H]2O[C@@H]3COP(=O)(S)O[C@H]4[C@@H](F)[C@H](n5cnc6c(N)ncnc65)O[C@@H]4COP(=O)(S)O[C@H]3[C@H]2O)[nH]n1 (single isomer, unassigned) [Example 6-4]
A) -0.72

Q) Identify the reported log10 of IC50 for the following entry. NC(=O)c1cccc2c1nnn2[C@@H]1O[C@@H]2COP(=O)(O)O[C@H]3[C@@H](F)[C@H](n4cnc5c4ncn4ccnc54)O[C@@H]3COP(=O)(O)O[C@H]2[C@H]1F [Example 9]
A) -0.38

Q) For the compound Nc1ncnc2c1ncn2[C@@H]1O[C@@H]2COP(=O)(S)O[C@H]3[C@@H](F)[C@H](n4cnc5c4ncn4ccnc54)O[C@@H]3COP(=O)(S)O[C@H]2[C@H]1F (single isomer, unassigned) [Example 21-4] , report log10 of IC50.
A) -2.00

src = patent US11660311B2
